- Assay Target: T1, human CCR8 (human, UniProt P51685 1-355)
- T1 construct: whole, on cells; construct used for the overexpressing cell lines is not described; also called hCCR8
- T1 sequence (P51685 whole entry): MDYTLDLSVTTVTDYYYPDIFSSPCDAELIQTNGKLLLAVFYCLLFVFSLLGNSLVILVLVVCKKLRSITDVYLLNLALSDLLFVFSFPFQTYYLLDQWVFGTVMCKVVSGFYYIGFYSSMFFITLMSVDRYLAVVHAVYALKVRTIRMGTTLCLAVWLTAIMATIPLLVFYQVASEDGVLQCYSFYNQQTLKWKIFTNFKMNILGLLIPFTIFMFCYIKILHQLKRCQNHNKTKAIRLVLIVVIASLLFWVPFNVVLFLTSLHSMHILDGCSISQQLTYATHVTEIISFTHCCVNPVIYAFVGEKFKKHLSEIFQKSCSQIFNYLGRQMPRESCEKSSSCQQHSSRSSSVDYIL
- Run Description: FACS, HEK293-hCCR8 cells
Record form. Attribute: EC50. Fill in for each entry.
Kindly answer with a numeric value in nM, unit omitted.

Input line: Please give the measured EC50 for this binder: PR004123 (antibody, human IgG1, kappa, V domains shown, chimeric, human IgG1 constant region) VH: EVQLVESGGGLVQPKGSLKLSCAASEFTFNTYAMNWVRQAPGKGLEWVARIRTKSNNFATYYADSVKDRFTISRDDSQSMLFLQMNNLKTEDTAMYYCVRGKENGNYYAMDFWGQGTSVTVSA VL: DIVMTQAAPSVPVTPGESVSISCRSSKSLLHSNGNTYLYWFLQRPGQSPQLLIYRMSNLASGVPDRFSGSGSGTAFTLRISRVEAEDVGVYYCMQHLEYPFTFGGGTKLELKR
Output line: 0.62

Input line: Request: PR004127 (antibody, human IgG1, kappa, V domains shown, chimeric, human IgG1 constant region) VH: EVQLVETGGGLVQPKGSLKLSCAASGFTFNTNAMNWVRQAPGKGLEWVARIRSKSNNYATYYADSVKDRFTISRDDSQNMLYLQMNNLKTEDTAMYYCVRGKENGNYYAMDFWGQGTSVTVSS VL: DIVMTQAATSVLVTPGESVSISCRSSKSLLYSNGNTYLYWFLQRPGQSPQLLIYRMSNLASGVPDRFSGSGSGTAFTLRISRVEAEDVGVYYCMQHLEYPFTFGGGTKLEMKR
Output line: 0.86

Input line: Request: PR004121 (antibody, human IgG1, kappa, V domains shown, chimeric, human IgG1 constant region) VH: EVQLVESGGGLVQPKGSLKLSCAASGFTFNTYAMNWVRQAPGKGLEWVARIRSKSNNYATYYADSVKDRFTISRDDSQNMLYLQMNNLKTEDTAMYYCVRGKENGNYYAMDFWGQGTSVTVSS VL: DIVITQAAPSVPVTPGESVSISCRSSKSLLHSNGNTYLYWFLQRPGQSPQLLIYRMSNLASGVPDRFSGSGSGTAFTLRISRVEAEDVGVYYCMQHLEYPFTFGGGTKLEMKR
Output line: 0.63

Input line: Request: PR004120 (antibody, human IgG1, kappa, V domains shown, chimeric, human IgG1 constant region) VH: EVQLVESGGGLVQPKGSLKLSCAASGFTFNTNAMNWVRQAPGKGLEWVARIRSKMNNYATYYADSVKDRFTISRDDSQNMLYLQMNNLKTEDTAMYYCVRGKENGNYYAMDFWGQGTSVTVSA VL: DIVMTQAATSVLVTPGESVSISCRSSKSLLYSNGNTYLYWFLQRPGQSPQLLIYRMSNLASGVPDRFSGSGSGTAFTLRISRVEAEDVGVYYCMQHLEYPFTFGGGTKLEIKR
Output line: 1.1

Input line: Request: PR004129 (antibody, human IgG1, kappa, V domains shown, chimeric, human IgG1 constant region) VH: EVQLVESGGGLVQPKGSLKLSCAASGFTFNTYAMNWVRQAPGKGLEWVARIRSKSNNYATYYADSVKDRFTISRDDSQSMLYLQMNNLKTEDTAMYYCVRGKDYGNYYAMDYWGQGTSVTVSS VL: DILLTQSPAILSVSPGERVSFSCRSSKSLLHSNGNTYLYWFLQRPGQSPQLLIYRMSNLASGVPDRFSGSGSGTAFTLRISRVEAEDVGVYYCMQHLEYPFTFGSGTKLEINR
Output line: 0.34
